Biological target: T1, cynomolgus monkey TREM2 Fc fusion (entire TREM2 ECD; only one Fc arm fused to TREM2) (cynomolgus monkey, UniProt Q9NZC2 19-174 (human entry))
T1 construct: also called cyno TREM2-Fc
T1 chain: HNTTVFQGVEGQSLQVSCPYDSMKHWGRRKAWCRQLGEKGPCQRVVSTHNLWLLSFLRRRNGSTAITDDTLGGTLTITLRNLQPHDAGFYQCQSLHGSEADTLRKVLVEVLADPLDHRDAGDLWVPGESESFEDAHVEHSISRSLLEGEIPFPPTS
Experiment: BLI, Fab, monovalent

Binder | Kd (nM)
AL2p-26 (antibody, V domains shown, Fab and IgG formats under one id) VH: QVQLVQSGAEVKKPGSSVKVSCKASGYAFSSHWMNWVRQAPGQGLEWMGRIYPGGGDTNYAQKRQGRVTITADESTSTAYMELSSLRSEDTAVYYCARLLRNQPGESYAMDYWGQGTLVTVSS VL: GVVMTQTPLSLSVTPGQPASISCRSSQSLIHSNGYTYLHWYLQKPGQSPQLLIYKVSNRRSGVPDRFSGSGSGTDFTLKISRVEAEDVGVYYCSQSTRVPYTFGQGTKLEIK | 2.69
